Recorded measurements of average of the five mice's walking time, one per entry
System: Slc: ddy male mice
Conditions: mouse, in vivo, po, 50 mg/kg, 1 h
Please respond with the number in s and leave the unit unwritten.

Example entries and their recorded answers appear below.
* CN1C(=O)CCC1c1nc(-c2ccc(F)cc2)no1 (centres unmarked) [Example 25] | 144.8
* CN1C(=O)CCC1c1nc(-c2ccc(F)cc2F)no1 (centres unmarked) [Example 26] | 180

# lookup: average of the five mice's walking time of CN1C(=O)CCC1c1nc(-c2ccc(F)cc2)no1 (single isomer, unassigned) [Example 32]
180

# lookup: average of the five mice's walking time of CN1C(=O)CCC1(C)c1nc(-c2ccc(F)cc2)no1 (centres unmarked) [Example 28]
180

# lookup: average of the five mice's walking time of CN1C(=O)CCC1c1nc(-c2ccc(Cl)cc2)no1 (centres unmarked) [Example 29]
146.4

# lookup: average of the five mice's walking time of CN1C(=O)CCC1c1nc(-c2ccc(F)c(F)c2)no1 (centres unmarked) [Example 27]
180

# lookup: average of the five mice's walking time of CN1C(=O)CC[C@H]1c1nc(-c2ccc(F)cc2)no1 (single isomer, unassigned) [Example 31]
53.2

# lookup: average of the five mice's walking time of CN1C(=O)CCC1c1nc(-c2ccc(Br)cc2)no1 (centres unmarked) [Example 30]
180

* * *

System: GABA(A) receptors
Experiment: Evaluation of the potentiating effect on GABA(A) receptors (electrophysiology, GABA(A) receptor expressing cells)
Assay type: cell-based
Details: 2 μM GABA and test compound with 10 μM flumazenil
reported endpoint: Inhibition rate to the increased electric current by adding flumazenil (%)
Please respond with the number in % and leave the unit unwritten.

Example entries and their recorded answers appear below.
• CN1C(=O)CN=C(c2ccccc2)c2cc(Cl)ccc21 [diazepam, reference compound] = 93
• CN1C(=O)CCC1c1nc(-c2ccc(Cl)cc2)no1 (stereo not shown) [Example 29] = 7
• CN1C(=O)CC(=O)N(c2ccccc2)c2cc(Cl)ccc21 [clobazam, reference compound] = 88
• CN1C(=O)CCC1(C)c1nc(-c2ccc(F)cc2)no1 (stereo not shown) [Example 28] = 24
• CC(C)(c1noc(-c2ccc(Cl)cc2)n1)S(N)(=O)=O [Example 20] = 55

# context switch: different molecule, same Inhibition rate to the increased electric current by adding flumazenil
# lookup: Inhibition rate to the increased electric current by adding flumazenil of CN1C(=O)CCC1c1nc(-c2ccc(F)cc2)no1 (stereo not shown) [Example 25]
12

* * *

Recorded measurements of Difference of the threshold temperature of convulsion from that of the control group, one per entry
Tested on: BALB/c-Scn1a<+/−> mice
Experiment: Anticonvulsant effect in mouse model of Dravet syndrome with febrile seizures
Type: in vivo
Conditions: oral, at the dose for anticonvulsive effect; hyperthermia 50 minutes after dosing
Please respond with the number in °C and leave the unit unwritten.

# lookup: Difference of the threshold temperature of convulsion from that of the control group of CN1C(=O)CCC1c1nc(-c2ccc(F)cc2)no1 (centres unmarked) [Example 25]
0.3

# lookup: Difference of the threshold temperature of convulsion from that of the control group of CN1C(=O)CC[C@H]1c1nc(-c2ccc(F)cc2)no1 (single isomer, unassigned)
0.3

# lookup: Difference of the threshold temperature of convulsion from that of the control group of CN1C(=O)CCC1c1nc(-c2ccc(F)cc2)no1 (single isomer, unassigned) [Example 32]
0.5

# lookup: Difference of the threshold temperature of convulsion from that of the control group of CN1C(=O)CCC1c1nc(-c2ccc(Cl)cc2)no1 (centres unmarked)
0.7

# lookup: Difference of the threshold temperature of convulsion from that of the control group of CC(C)(c1noc(-c2ccc(Cl)cc2)n1)S(N)(=O)=O
0.6

# lookup: Difference of the threshold temperature of convulsion from that of the control group of CC(C)(C(N)=O)c1nc(-c2ccc(Br)cc2)no1
0.7

# lookup: Difference of the threshold temperature of convulsion from that of the control group of CC(C)(C(N)=O)c1noc(-c2ccc(Cl)cc2)n1
0.6

# lookup: Difference of the threshold temperature of convulsion from that of the control group of CC(C)(C(N)=O)c1nc(-c2ccc(Cl)cc2)no1
0.6
